The following binders are listed with their measured OD450 values.
System tested: Hemagglutinin of influenza A/Japan/305/57 (H2N2), on inactivated whole virions (Influenza A virus A/Japan/305/1957 …, UniProt P03451 16-562)
Test protocol: ELISA, B cell culture supernatant on inactivated whole virions
Provide the reading as a plain figure in OD450.

[
  {
    "Binder": "TCN-544 (5082_A19) (antibody, V domains shown) VH: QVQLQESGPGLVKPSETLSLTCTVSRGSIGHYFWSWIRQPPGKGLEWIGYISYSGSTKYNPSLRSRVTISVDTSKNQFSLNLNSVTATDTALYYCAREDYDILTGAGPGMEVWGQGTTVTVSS VL: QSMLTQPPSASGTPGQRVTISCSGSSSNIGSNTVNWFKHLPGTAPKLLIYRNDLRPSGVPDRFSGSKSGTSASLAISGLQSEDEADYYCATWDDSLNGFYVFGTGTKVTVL",
    "Metric": "OD450",
    "Val": 0.07
  }
]

Returns the measured OD450 for the input binder. Input: TCN-540 (5060_F05) (antibody, V domains shown) VH: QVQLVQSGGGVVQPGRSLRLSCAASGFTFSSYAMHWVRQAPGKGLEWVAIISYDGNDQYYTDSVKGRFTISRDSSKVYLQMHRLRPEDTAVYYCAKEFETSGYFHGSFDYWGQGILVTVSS VL: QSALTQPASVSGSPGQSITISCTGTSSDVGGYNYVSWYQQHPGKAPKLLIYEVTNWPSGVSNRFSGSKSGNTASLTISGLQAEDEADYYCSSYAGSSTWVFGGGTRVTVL 3.62

Could you do the same for TCN-536 (5095_N01) (antibody, V domains shown) VH: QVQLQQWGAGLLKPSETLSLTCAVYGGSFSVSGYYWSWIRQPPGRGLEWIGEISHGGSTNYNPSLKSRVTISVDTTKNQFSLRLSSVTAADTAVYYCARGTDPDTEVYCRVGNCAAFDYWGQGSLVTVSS VL: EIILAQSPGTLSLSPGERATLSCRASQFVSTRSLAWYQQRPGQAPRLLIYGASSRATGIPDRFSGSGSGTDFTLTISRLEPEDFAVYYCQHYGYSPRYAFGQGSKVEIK , please? 0.08
